Could you please report measured pIC50 for the items listed next?
target: human Nav1.8/b3 (Homo sapiens); construct: expressed in transfected cells; host or cells: CHO; assay: Compound Profiling Human NaV1.8/β3 Cell Line—SyncroPatch384PE Assay (automated patch clamp, stably transfected CHO cells); format: cell-based; conditions: P2 (IC50, inactivated state block), P2 measurement, inactivated state block; Nav1.8/b3 CHO cells, inactivation step −35 mV 10 sec; third set of compounds
Sequence (Q9Y5Y9 whole entry): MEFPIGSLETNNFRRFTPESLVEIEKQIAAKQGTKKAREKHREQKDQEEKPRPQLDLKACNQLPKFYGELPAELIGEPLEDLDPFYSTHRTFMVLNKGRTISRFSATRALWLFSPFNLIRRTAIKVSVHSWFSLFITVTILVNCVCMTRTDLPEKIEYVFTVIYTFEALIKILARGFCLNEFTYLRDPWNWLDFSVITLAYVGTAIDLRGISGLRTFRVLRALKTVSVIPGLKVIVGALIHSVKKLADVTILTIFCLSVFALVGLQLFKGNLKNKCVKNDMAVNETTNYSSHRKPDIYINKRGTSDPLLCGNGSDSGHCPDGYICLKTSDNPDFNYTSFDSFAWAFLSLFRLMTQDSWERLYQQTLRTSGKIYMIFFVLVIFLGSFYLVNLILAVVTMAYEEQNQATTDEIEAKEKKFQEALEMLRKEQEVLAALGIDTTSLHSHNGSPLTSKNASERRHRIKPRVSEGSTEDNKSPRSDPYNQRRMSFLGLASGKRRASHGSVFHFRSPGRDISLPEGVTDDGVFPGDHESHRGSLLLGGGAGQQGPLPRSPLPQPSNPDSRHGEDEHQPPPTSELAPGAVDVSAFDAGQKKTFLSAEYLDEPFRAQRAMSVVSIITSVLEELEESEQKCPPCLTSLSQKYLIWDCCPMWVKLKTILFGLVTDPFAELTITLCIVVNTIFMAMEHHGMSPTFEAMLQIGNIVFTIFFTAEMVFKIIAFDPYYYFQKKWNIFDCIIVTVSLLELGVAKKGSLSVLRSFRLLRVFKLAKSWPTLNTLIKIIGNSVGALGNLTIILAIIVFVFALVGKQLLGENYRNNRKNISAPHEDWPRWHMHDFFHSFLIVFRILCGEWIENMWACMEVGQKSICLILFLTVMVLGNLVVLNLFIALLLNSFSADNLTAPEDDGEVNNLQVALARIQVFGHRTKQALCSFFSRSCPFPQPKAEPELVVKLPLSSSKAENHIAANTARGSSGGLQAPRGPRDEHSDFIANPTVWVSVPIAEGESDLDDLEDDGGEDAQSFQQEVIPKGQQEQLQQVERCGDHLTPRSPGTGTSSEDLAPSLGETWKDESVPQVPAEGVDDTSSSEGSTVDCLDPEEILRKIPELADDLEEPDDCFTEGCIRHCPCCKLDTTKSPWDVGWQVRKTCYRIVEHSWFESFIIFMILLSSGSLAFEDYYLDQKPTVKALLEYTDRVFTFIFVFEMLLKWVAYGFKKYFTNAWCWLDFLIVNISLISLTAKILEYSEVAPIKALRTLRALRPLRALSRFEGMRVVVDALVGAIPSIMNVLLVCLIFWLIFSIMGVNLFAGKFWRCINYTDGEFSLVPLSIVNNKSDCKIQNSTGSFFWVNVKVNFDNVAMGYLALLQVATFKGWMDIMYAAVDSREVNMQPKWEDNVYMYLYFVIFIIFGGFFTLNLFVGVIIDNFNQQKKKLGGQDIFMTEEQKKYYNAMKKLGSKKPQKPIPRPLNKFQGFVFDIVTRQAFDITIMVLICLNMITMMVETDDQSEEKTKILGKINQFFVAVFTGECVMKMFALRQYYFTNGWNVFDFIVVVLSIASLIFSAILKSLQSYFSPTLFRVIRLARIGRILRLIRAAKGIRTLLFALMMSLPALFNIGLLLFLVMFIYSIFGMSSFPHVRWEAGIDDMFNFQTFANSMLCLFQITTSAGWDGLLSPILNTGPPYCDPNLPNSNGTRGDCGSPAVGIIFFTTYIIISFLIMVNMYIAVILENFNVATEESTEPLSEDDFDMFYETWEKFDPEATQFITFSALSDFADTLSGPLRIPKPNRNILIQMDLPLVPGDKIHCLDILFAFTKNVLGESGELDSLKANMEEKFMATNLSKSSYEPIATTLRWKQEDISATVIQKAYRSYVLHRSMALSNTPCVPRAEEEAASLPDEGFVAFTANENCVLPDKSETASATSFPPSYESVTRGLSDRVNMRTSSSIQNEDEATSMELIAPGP
Sequence (Q9NY72 23-215 partner): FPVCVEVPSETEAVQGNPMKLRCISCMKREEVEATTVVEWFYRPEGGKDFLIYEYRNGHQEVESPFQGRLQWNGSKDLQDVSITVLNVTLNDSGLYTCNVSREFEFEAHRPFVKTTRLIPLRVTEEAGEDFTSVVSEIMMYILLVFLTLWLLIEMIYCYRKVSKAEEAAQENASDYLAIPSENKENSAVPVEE
pIC50: −log10 of the molar value.

Worked cases, answers included:
{"molecule": "Cc1nc(F)ccc1Oc1ncc(-c2ccc(C#N)cc2)c(C)c1C(=O)Nc1cccc([S@](C)(=N)=O)c1 [Example 3C]", "property": "pIC50", "observed.measurement": "7.30 to 8.30"}
{"molecule": "Cc1cc(C#N)ccc1Oc1cc(C(F)(F)F)nnc1C(=O)Nc1cccc(S(C)(=O)=O)c1 [Example 29C]", "property": "pIC50", "observed.measurement": "< 6.70"}
{"molecule": "Cc1nc(F)ccc1Oc1ncc(C2CC2)c(C)c1C(=O)Nc1cccc([S@](C)(=N)=O)c1 [Example 12C]", "property": "pIC50", "observed.measurement": "7.00 to 7.30"}
{"molecule": "Cc1nc(F)ccc1Oc1ncc(C(F)(F)F)c(C)c1C(=O)NC12CC(C(N)=O)(C1)C2 [Example 112C]", "property": "pIC50", "observed.measurement": "< 6.70"}
{"molecule": "Cc1nc(F)ccc1Oc1ncc(C(F)(F)F)c(C)c1C(=O)Nc1ccc(C(N)=O)nc1 [Example 111C]", "property": "pIC50", "observed.measurement": "< 6.70"}

Kindly give each listed record's pIC50.
1. Cc1cc(C#N)ccc1Oc1cc(C(F)(F)F)nnc1C(=O)Nc1cccc(S(C)(=N)=O)c1 (stereo not drawn) [Example 39C]
2. COc1cc(C#N)ccc1Oc1cc(C(F)(F)F)nnc1C(=O)Nc1cccc(S(C)(=N)=O)c1 (stereo not drawn) [Example 34C]
3. COc1cc(C#N)ccc1Oc1ncc(Br)c(C)c1C(=O)Nc1cccc([S@](C)(=N)=O)c1 [Example 24C]
4. Cc1nc(F)ccc1Oc1ncc(C(F)(F)F)c(C)c1C(=O)Nc1cccc(S(C)(=O)=O)c1 [Example 123C]
5. Cc1nc(F)ccc1Oc1ncc(C(F)(F)F)c(C)c1C(=O)Nc1cccc(S(C)(=N)=N)c1 [Example 40C]

A:
1: < 6.70; 2: < 6.70; 3: > 8.30; 4: > 8.30; 5: > 8.30

Would you mind listing pIC50 for each of the following molecules?
1. Cc1nc(F)ccc1Oc1ncc(-c2ccc(F)c(F)c2)c(C)c1C(=O)Nc1cccc([S@](C)(=N)=O)c1 [Example 6C]
2. Cc1nc(F)ccc1Oc1ncc(C2CCC2)c(C)c1C(=O)Nc1cccc([S@](C)(=N)=O)c1 [Example 99C]
3. COc1cc(C#N)ccc1Oc1ncc(Cl)c(C)c1C(=O)Nc1cccc(S(C)(=N)=O)c1 (stereo not drawn) [Example 25C]
4. Cc1nc(F)ccc1Oc1ncc(C(F)(F)F)c(C)c1C(=O)Nc1cccc([S@@](C)(=O)=NCCN)c1 [Example 43C]

A:
1. > 8.30
2. 7.30 to 8.30
3. > 8.30
4. > 8.30

Per the record, COc1cc(C#N)ccc1Oc1ncc(-c2ccc(C(F)F)cc2)c(C)c1C(=O)Nc1ccnc([S@](C)(=N)=O)c1 [Example 17C] has pIC50 of < 6.70
